# Test system: Heligmosomoides polygyrus
# experiment_notes: Anthelmintic activity ( in Vivo ) in mouse, as percentage reduction of Nematospiroides dubius at 250 PPM
# Type: functional
quantity_measured: Reduction
The number alone won't do; follow it with the unit.

Enquiry: Need Reduction, item O=C(NC(=O)c1ccc(F)cc1)Nc1cccc(C2CN3CCSC3=N2)c1 (stereo not drawn)
Return: 0%

Enquiry: Need Reduction, item CC(C)(C)c1ccc(C(=O)NC(=O)Nc2cccc(C3CN4CCSC4=N3)c2)cc1 (stereo not drawn)
Return: 0%

Enquiry: Need Reduction, item O=C(NC(=O)c1cccc([N+](=O)[O-])c1)Nc1cccc(C2CN3CCSC3=N2)c1 (stereo not drawn)
Return: 0%

Enquiry: Need Reduction, item O=C(NC(=O)c1ccc(C(=O)c2ccccc2)cc1)Nc1cccc(C2CN3CCSC3=N2)c1 (stereo not drawn)
Return: 0%

Enquiry: Need Reduction, item O=C(NC(=O)c1c(F)cccc1F)Nc1cccc(C2CN3CCSC3=N2)c1 (stereo not drawn)
Return: 100%

Enquiry: Need Reduction, item O=C(NC(=O)c1ccc(OC(F)(F)F)cc1)Nc1cccc(C2CN3CCSC3=N2)c1 (stereo not drawn)
Return: 0%

Enquiry: Need Reduction, item O=C(NC(=O)c1ccc(C(F)(F)F)cc1)Nc1cccc(C2CN3CCSC3=N2)c1 (stereo not drawn)
Return: 100%

Enquiry: Need Reduction, item COc1ccccc1C(=O)NC(=O)Nc1cccc(C2CN3CCSC3=N2)c1 (stereo not drawn)
Return: 0%

Enquiry: Need Reduction, item N#Cc1ccc(C(=O)NC(=O)Nc2cccc(C3CN4CCSC4=N3)c2)cc1 (stereo not drawn)
Return: 0%

Enquiry: Need Reduction, item O=C(NC(=O)c1ccccc1Cl)Nc1cccc(C2CN3CCSC3=N2)c1 (stereo not drawn)
Return: 100%

Enquiry: Need Reduction, item O=C(NC(=O)c1c(F)cccc1F)Nc1cccc([C@H]2CN3CCSC3=N2)c1
Return: 100%

Enquiry: Need Reduction, item O=C(NC(=O)c1ccc(C(F)(F)F)cc1)Nc1cccc([C@H]2CN3CCSC3=N2)c1
Return: 43%

Enquiry: Need Reduction, item O=C(NC(=O)c1ccc(I)cc1)Nc1cccc(C2CN3CCSC3=N2)c1 (stereo not drawn)
Return: 0%
